system: MDA-MB-435; experiment: NCI tumour cell line growth inhibition, 48 h
The source made the active and inactive calls. Rule as the data show it: active = GI50 up to about 1.1 µM and inactive = higher.
Possible outcomes: active, inactive

# compound, study.target, label.value
rows = [
    ("CCOC(=O)c1sc2nc(SC)nc3c2c1NCN3c1ccc2c(c1)OCO2", "MDA-MB-435", "inactive"),
    ("C=CCN1C(=O)N/C(=C\\c2ccc(Cl)cc2)C1=O", "MDA-MB-435", "inactive"),
    ("Nc1cccc(S(=O)(=O)Nc2nnc(S(N)(=O)=O)s2)c1", "MDA-MB-435", "inactive"),
    ("CN(CCCNC(=O)c1c2ccc3ccccc3c2nn1C)CCCNC(=O)c1c2ccc3ccccc3c2nn1C", "MDA-MB-435", "inactive"),
    ("Cc1nn(-c2cc(Cl)ccc2[N+](=O)[O-])c(C)c1Cl", "MDA-MB-435", "inactive"),
    ("CCN(CC)c1ccc2nc3ccc(/N=N/c4c(O)ccc5ccccc45)cc3[n+](-c3ccccc3)c2c1", "MDA-MB-435", "inactive"),
    ("C=C1C(=O)O[C@H]2[C@@H]3O[C@@](C)(CC/C=C(\\C)CCC[C@@H]2C)[C@H](O)C[C@@H]13", "MDA-MB-435", "inactive"),
    ("N#CC(NNC(=O)Cc1ccccc1)c1c(O)ccc2ccccc12 (configuration not stated)", "MDA-MB-435", "inactive"),
    ("CC1=CN(c2ccccc2)S2=C1c1sc3c(c1N2c1ccc(Br)cc1)CCCC3 (configuration not stated)", "MDA-MB-435", "inactive"),
    ("C/C=C1/CN2CCC34C5=CC(=O)C(c6cc7c(cc6OC)N(C)C6=C(C(=O)OC)CC8(CC)CCCN9CCC67C98)=CC5=NC23CCC1C4C(=O)OC (configuration not stated)", "MDA-MB-435", "inactive"),
    ("COP(=O)(CP(=O)(OC)OCCC(C)CCC=C(C)C)OC (configuration not stated)", "MDA-MB-435", "inactive"),
    ("CCOc1ccc(N/C(=C(/C(Cl)=C(/Cl)NCCN)[N+](=O)[O-])n2nnc3ccccc32)cc1", "MDA-MB-435", "inactive"),
    ("NC(=O)CSc1nc2ccccc2c(=O)n1N", "MDA-MB-435", "inactive"),
    ("CC(C)(C)[Si](C)(C)OCC1OC(n2ccc(=O)[nH]c2=O)C(O[Si](C)(C)C(C)(C)C)/C1=C/C#N (configuration not stated)", "MDA-MB-435", "inactive"),
    ("CC1(C)OC(=O)C(=Cc2ccc([N+](=O)[O-])s2)C(=O)O1", "MDA-MB-435", "inactive"),
    ("CSc1c(C#N)c(S)n(-c2ccc(Cl)cc2)c(=O)c1C#N", "MDA-MB-435", "inactive"),
    ("COc1ccc(N2C(=O)/C(=C\\c3cc(OC)c(OC)c(OC)c3)SC2c2ccccc2)cc1 (configuration not stated)", "MDA-MB-435", "inactive"),
    ("C=C1N(S(=O)(=O)c2ccc(C)cc2)C(=O)OCC12CCCC2", "MDA-MB-435", "inactive"),
    ("COc1cc(OC)nc(Nc2c(C#N)c3nc4ccccc4n3c3ccccc23)n1", "MDA-MB-435", "inactive"),
    ("O=[N+]([O-])c1cccc2nc3ccccc3c(NCCN(CCO)CCO)c12", "MDA-MB-435", "active"),
    ("COC(=O)C1=C(O)C(C(=O)OC)[C@]2(O)[C@H](C(=O)OC)[C@H]1C[C@@H](c1ccc(C(F)(F)F)cc1)[C@H]2C(=O)OC (some centres not stated)", "MDA-MB-435", "inactive"),
    ("C[C@]12CC(c3ccccc3O1)C(C(=O)Nc1nc(C34CC5CC(CC(C5)C3)C4)cs1)C(=O)N2 (some centres not stated)", "MDA-MB-435", "inactive"),
    ("Cc1ccc(S(=O)(=O)NNC(=O)c2cc(C)c(C)cc2N)cc1", "MDA-MB-435", "inactive"),
    ("CCOC(=O)c1cc2ncccc2c2ccccc12", "MDA-MB-435", "inactive"),
    ("COC1CC(CC2CCC(C)C(C(C)C(=O)O)O2)OC2(OC(C)(C3CCC(C)(C4OC(C5OC(O)(CO)C(C)CC5C)CC4C)O3)CC2C)C1C (configuration not stated)", "MDA-MB-435", "inactive"),
    ("CC(C)CCNC(=O)c1ccc(CNC(=O)/C=C/c2csc(-c3ccccc3)n2)cc1", "MDA-MB-435", "inactive"),
    ("Cc1cc2c(cc1Cl)Sc1n[nH]c(=O)n1S2(=O)=O", "MDA-MB-435", "inactive"),
    ("COc1ccccc1-n1nnc2c(N)nc(N)nc21", "MDA-MB-435", "inactive"),
    ("O=S(=O)(c1ccccc1)c1cccc2c1NCCC2", "MDA-MB-435", "inactive"),
    ("CNc1ccc(OC)cc1S(=O)(=O)c1ccccc1[N+](=O)[O-]", "MDA-MB-435", "inactive"),
    ("N#C/C(=C\\n1ccc(=O)[nH]c1=S)C(N)=O", "MDA-MB-435", "inactive"),
    ("Cc1cn(C2CC(N=[N+]=[N-])C(CO)O2)c(=O)n(CCCCO)c1=O (configuration not stated)", "MDA-MB-435", "inactive"),
]

Attribution: ChEMBL document CHEMBL1201862
